Ki data for hCA XII (Homo sapiens, UniProt O43570) follow.
Your answer is read as µM, so omit the unit and give the number.

Observe how each entry below is paired with its result.
[
  {
    "Mol": "COc1ccc(C=C(NC(=O)c2ccccc2)C(=O)Nc2ccc(S(N)(=O)=O)cc2)cc1",
    "Ki (µM)": 0.0428
  },
  {
    "Mol": "COc1ccc(C=C(NC(=O)c2ccccc2)C(=O)Nc2ccc(S(N)(=O)=O)cc2)c(OC)c1",
    "Ki (µM)": 0.135
  },
  {
    "Mol": "NS(=O)(=O)c1ccc(NC(=O)C(=Cc2ccc(Br)cc2)NC(=O)c2ccccc2)cc1",
    "Ki (µM)": 0.0554
  },
  {
    "Mol": "Cc1ccc(C=C(NC(=O)c2ccccc2)C(=O)Nc2ccc(S(N)(=O)=O)cc2)o1",
    "Ki (µM)": 0.0579
  },
  {
    "Mol": "NS(=O)(=O)c1ccc(NC(=O)C(=Cc2ccc(Cl)cc2)NC(=O)c2ccccc2)cc1",
    "Ki (µM)": 0.0161
  },
  {
    "Mol": "Cc1ccc(C=C(NC(=O)c2ccccc2)C(=O)Nc2ccc(S(N)(=O)=O)cc2)cc1",
    "Ki (µM)": 0.0602
  }
]

Lookup: Give Ki for `COc1ccc(C=C(NC(=O)c2ccccc2)C(=O)Nc2ccc(S(N)(=O)=O)cc2)cc1OC` tested on hCA XII (Homo sapiens, UniProt O43570).
Sequence (O43570 25-354): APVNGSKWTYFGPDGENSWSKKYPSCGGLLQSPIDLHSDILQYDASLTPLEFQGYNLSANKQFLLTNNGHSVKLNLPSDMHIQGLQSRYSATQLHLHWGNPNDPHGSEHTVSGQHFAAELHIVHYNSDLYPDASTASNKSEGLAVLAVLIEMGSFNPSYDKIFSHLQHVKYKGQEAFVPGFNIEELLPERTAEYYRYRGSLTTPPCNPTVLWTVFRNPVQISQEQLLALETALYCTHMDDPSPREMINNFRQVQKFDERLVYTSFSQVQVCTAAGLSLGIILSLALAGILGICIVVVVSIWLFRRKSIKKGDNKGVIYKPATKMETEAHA
Found: 0.0098

Lookup: Answer with Ki of `NS(=O)(=O)c1ccc(NC(=O)C(=Cc2ccc(Cl)cc2Cl)NC(=O)c2ccccc2)cc1` measured for hCA XII (Homo sapiens, UniProt O43570).
Found: 0.0105
